Details: 307.15 K; 101.33 kPa; Liquid; Vibrating tube method
test.readout: mass density (kg/m3)

compound: CCCCCCOS(=O)(=O)[O-].CC[n+]1ccn(C)c1 [3-ethyl-1-methyl-1H-imidazolium hexyl sulfate]
test.readout: mass density
recorded.result: 1124.37
--
compound: CCCCCCCCOS(=O)(=O)[O-].CCn1cc[n+](C)c1 [1-ethyl-3-methylimidazolium octyl sulfate]
test.readout: mass density
recorded.result: 1089.66
--
compound: CCn1cc[n+](C)c1.O=S(=O)([O-])O [1-ethyl-3-methylimidazolium hydrogen sulfate]
test.readout: mass density
recorded.result: 1360.21
--
compound: CCn1cc[n+](C)c1.COS(=O)(=O)[O-] [1-ethyl-3-methylimidazolium methylsulfate]
test.readout: mass density
recorded.result: 1279.84
--
compound: CCCCOS(=O)(=O)[O-].CC[n+]1ccn(C)c1 [3-ethyl-1-methylimidazolium butyl sulfate]
test.readout: mass density
recorded.result: 1170.11

----------
Conditions: 360.15 K; 101.33 kPa; Liquid; Vibrating tube method
test.readout: mass density (kg/m3)

compound: CCCCCCOS(=O)(=O)[O-].CC[n+]1ccn(C)c1 [3-ethyl-1-methyl-1H-imidazolium hexyl sulfate]
test.readout: mass density
readout.units: kg/m3
recorded.result: 1090.06

compound: CCn1cc[n+](C)c1.COS(=O)(=O)[O-] [1-ethyl-3-methylimidazolium methylsulfate]
test.readout: mass density
readout.units: kg/m3
recorded.result: 1244.74

compound: CCn1cc[n+](C)c1.O=S(=O)([O-])O [1-ethyl-3-methylimidazolium hydrogen sulfate]
test.readout: mass density
readout.units: kg/m3
recorded.result: 1328.44

compound: CCCCOS(=O)(=O)[O-].CC[n+]1ccn(C)c1 [3-ethyl-1-methylimidazolium butyl sulfate]
test.readout: mass density
readout.units: kg/m3
recorded.result: 1135.45

compound: CCCCCCCCOS(=O)(=O)[O-].CCn1cc[n+](C)c1 [1-ethyl-3-methylimidazolium octyl sulfate]
test.readout: mass density
readout.units: kg/m3
recorded.result: 1055.37

----------
Settings: 318.15 K; 101.33 kPa; Liquid; Vibrating tube method
test.readout: mass density (kg/m3)

molecule: CCn1cc[n+](C)c1.O=S(=O)([O-])O [1-ethyl-3-methylimidazolium hydrogen sulfate]
readout.units: kg/m3
recorded.result: 1353.81

molecule: CCCCOS(=O)(=O)[O-].CC[n+]1ccn(C)c1 [3-ethyl-1-methylimidazolium butyl sulfate]
readout.units: kg/m3
recorded.result: 1162.73

molecule: CCCCCCCCOS(=O)(=O)[O-].CCn1cc[n+](C)c1 [1-ethyl-3-methylimidazolium octyl sulfate]
readout.units: kg/m3
recorded.result: 1082.38

molecule: CCn1cc[n+](C)c1.COS(=O)(=O)[O-] [1-ethyl-3-methylimidazolium methylsulfate]
readout.units: kg/m3
recorded.result: 1272.4

molecule: CCCCCCOS(=O)(=O)[O-].CC[n+]1ccn(C)c1 [3-ethyl-1-methyl-1H-imidazolium hexyl sulfate]
readout.units: kg/m3
recorded.result: 1117.06

----------
Conditions: 334.15 K; 101.33 kPa; Liquid; Vibrating tube method
test.readout: mass density (kg/m3)

compound: CCCCCCOS(=O)(=O)[O-].CC[n+]1ccn(C)c1 [3-ethyl-1-methyl-1H-imidazolium hexyl sulfate]
mass density [kg/m3]: 1106.63

compound: CCn1cc[n+](C)c1.COS(=O)(=O)[O-] [1-ethyl-3-methylimidazolium methylsulfate]
mass density [kg/m3]: 1261.74

compound: CCCCCCCCOS(=O)(=O)[O-].CCn1cc[n+](C)c1 [1-ethyl-3-methylimidazolium octyl sulfate]
mass density [kg/m3]: 1071.93

compound: CCn1cc[n+](C)c1.O=S(=O)([O-])O [1-ethyl-3-methylimidazolium hydrogen sulfate]
mass density [kg/m3]: 1343.99

compound: CCCCOS(=O)(=O)[O-].CC[n+]1ccn(C)c1 [3-ethyl-1-methylimidazolium butyl sulfate]
mass density [kg/m3]: 1152.2

----------
Settings: 302.15 K; 101.33 kPa; Liquid; Vibrating tube method
test.readout: mass density (kg/m3)

molecule: CCn1cc[n+](C)c1.COS(=O)(=O)[O-] [1-ethyl-3-methylimidazolium methylsulfate]
test.readout: mass density
readout.units: kg/m3
recorded.result: 1283.26
--
molecule: CCCCCCOS(=O)(=O)[O-].CC[n+]1ccn(C)c1 [3-ethyl-1-methyl-1H-imidazolium hexyl sulfate]
test.readout: mass density
readout.units: kg/m3
recorded.result: 1127.72
--
molecule: CCn1cc[n+](C)c1.O=S(=O)([O-])O [1-ethyl-3-methylimidazolium hydrogen sulfate]
test.readout: mass density
readout.units: kg/m3
recorded.result: 1363.29
--
molecule: CCCCCCCCOS(=O)(=O)[O-].CCn1cc[n+](C)c1 [1-ethyl-3-methylimidazolium octyl sulfate]
test.readout: mass density
readout.units: kg/m3
recorded.result: 1092.99
--
molecule: CCCCOS(=O)(=O)[O-].CC[n+]1ccn(C)c1 [3-ethyl-1-methylimidazolium butyl sulfate]
test.readout: mass density
readout.units: kg/m3
recorded.result: 1173.5

----------
Conditions: 368.15 K; 101.33 kPa; Liquid; Concentric cylinders viscometry
test.readout: viscosity (mPa·s)

molecule: CCCCOS(=O)(=O)[O-].CC[n+]1ccn(C)c1 [3-ethyl-1-methylimidazolium butyl sulfate]
readout.units: mPa·s
viscosity: 14.2

a: CCCCCCOS(=O)(=O)[O-].CC[n+]1ccn(C)c1 [3-ethyl-1-methyl-1H-imidazolium hexyl sulfate]
b: CCCCCCCCOS(=O)(=O)[O-].CCn1cc[n+](C)c1 [1-ethyl-3-methylimidazolium octyl sulfate]
c: CCn1cc[n+](C)c1.O=S(=O)([O-])O [1-ethyl-3-methylimidazolium hydrogen sulfate]
d: CCn1cc[n+](C)c1.COS(=O)(=O)[O-] [1-ethyl-3-methylimidazolium methylsulfate]
Task for the reader: rank each entry by its viscosity, from the minimum upward. Answer with the labels in sequence, matching the requested order.
d, a, b, c
(d: 9.9 mPa·s, a: 18.9 mPa·s, b: 27 mPa·s, c: 61.9 mPa·s)

----------
Conditions: 349.15 K; 101.33 kPa; Liquid; Vibrating tube method
test.readout: mass density (kg/m3)

compound: CCn1cc[n+](C)c1.O=S(=O)([O-])O [1-ethyl-3-methylimidazolium hydrogen sulfate]
test.readout: mass density
readout.units: kg/m3
recorded.result: 1334.94
--
compound: CCCCCCCCOS(=O)(=O)[O-].CCn1cc[n+](C)c1 [1-ethyl-3-methylimidazolium octyl sulfate]
test.readout: mass density
readout.units: kg/m3
recorded.result: 1062.32
--
compound: CCCCOS(=O)(=O)[O-].CC[n+]1ccn(C)c1 [3-ethyl-1-methylimidazolium butyl sulfate]
test.readout: mass density
readout.units: kg/m3
recorded.result: 1142.5
--
compound: CCn1cc[n+](C)c1.COS(=O)(=O)[O-] [1-ethyl-3-methylimidazolium methylsulfate]
test.readout: mass density
readout.units: kg/m3
recorded.result: 1251.88
--
compound: CCCCCCOS(=O)(=O)[O-].CC[n+]1ccn(C)c1 [3-ethyl-1-methyl-1H-imidazolium hexyl sulfate]
test.readout: mass density
readout.units: kg/m3
recorded.result: 1097.02

----------
Conditions: 330.15 K; 101.33 kPa; Liquid; Vibrating tube method
test.readout: mass density (kg/m3)

compound: CCn1cc[n+](C)c1.COS(=O)(=O)[O-] [1-ethyl-3-methylimidazolium methylsulfate]
recorded.result: 1264.39
//
compound: CCCCCCOS(=O)(=O)[O-].CC[n+]1ccn(C)c1 [3-ethyl-1-methyl-1H-imidazolium hexyl sulfate]
recorded.result: 1109.21
//
compound: CCCCOS(=O)(=O)[O-].CC[n+]1ccn(C)c1 [3-ethyl-1-methylimidazolium butyl sulfate]
recorded.result: 1154.81
//
compound: CCCCCCCCOS(=O)(=O)[O-].CCn1cc[n+](C)c1 [1-ethyl-3-methylimidazolium octyl sulfate]
recorded.result: 1074.52
//
compound: CCn1cc[n+](C)c1.O=S(=O)([O-])O [1-ethyl-3-methylimidazolium hydrogen sulfate]
recorded.result: 1346.43

----------
Conditions: 303.15 K; 101.33 kPa; Liquid; Concentric cylinders viscometry
test.readout: viscosity (mPa·s)

I: CCn1cc[n+](C)c1.COS(=O)(=O)[O-] [1-ethyl-3-methylimidazolium methylsulfate]
II: CCCCOS(=O)(=O)[O-].CC[n+]1ccn(C)c1 [3-ethyl-1-methylimidazolium butyl sulfate]
III: CCCCCCOS(=O)(=O)[O-].CC[n+]1ccn(C)c1 [3-ethyl-1-methyl-1H-imidazolium hexyl sulfate]
IV: CCCCCCCCOS(=O)(=O)[O-].CCn1cc[n+](C)c1 [1-ethyl-3-methylimidazolium octyl sulfate]
V: CCn1cc[n+](C)c1.O=S(=O)([O-])O [1-ethyl-3-methylimidazolium hydrogen sulfate]
Rank the items above by viscosity, largest value first. Answer with the labels in sequence, matching the requested order.
V, IV, III, II, I
(V: 1144.8 mPa·s, IV: 433.6 mPa·s, III: 231.5 mPa·s, II: 137.9 mPa·s, I: 63.4 mPa·s)

----------
Conditions: 335.15 K; 101.33 kPa; Liquid; Vibrating tube method
test.readout: mass density (kg/m3)

compound: CCn1cc[n+](C)c1.O=S(=O)([O-])O [1-ethyl-3-methylimidazolium hydrogen sulfate]
readout.units: kg/m3
mass density: 1343.38
//
compound: CCCCCCOS(=O)(=O)[O-].CC[n+]1ccn(C)c1 [3-ethyl-1-methyl-1H-imidazolium hexyl sulfate]
readout.units: kg/m3
mass density: 1105.98
//
compound: CCCCOS(=O)(=O)[O-].CC[n+]1ccn(C)c1 [3-ethyl-1-methylimidazolium butyl sulfate]
readout.units: kg/m3
mass density: 1151.55
//
compound: CCCCCCCCOS(=O)(=O)[O-].CCn1cc[n+](C)c1 [1-ethyl-3-methylimidazolium octyl sulfate]
readout.units: kg/m3
mass density: 1071.29
//
compound: CCn1cc[n+](C)c1.COS(=O)(=O)[O-] [1-ethyl-3-methylimidazolium methylsulfate]
readout.units: kg/m3
mass density: 1261.08
